target: GppNp-loaded HIS-KRAS (G12D, aa 1-169) / cRAF RBD (Homo sapiens, UniProt P01116, G12D); construct: GppNp-loaded HIS-KRAS (G12D, aa 1-169); assay: GTP-KRAS and cRAF interaction assay; conditions: HTRF, 2 hours at 25° C.
Sequence (P01116 1-169 isoform P01116-2 G12D): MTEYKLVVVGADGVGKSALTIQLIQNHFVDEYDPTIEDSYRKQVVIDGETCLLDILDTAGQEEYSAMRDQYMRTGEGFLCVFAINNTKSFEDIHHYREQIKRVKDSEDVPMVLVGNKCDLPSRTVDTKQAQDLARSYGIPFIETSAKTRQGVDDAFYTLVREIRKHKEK
pIC50: −log10 of the molar value.
Tag: Fulfilled if measured pIC50 is not below 7, Not fulfilled if it is.

Ask | For this compound, is measured pIC50 7 or higher? C#Cc1cccc2cc(O)cc(-c3c(C(F)(F)F)cc4c(N5CC6CCC(C5)N6)nc(OCC5(CN6CCOCC6)CC5)nc4c3F)c12 (single isomer, unassigned) [Compound 98A]
Reply | Not fulfilled

Ask | Please indicate if the recorded pIC50 for C#Cc1cccc2cc(O)cc(-c3c(F)cc4c(N5CC6CCC(C5)N6)nc(OCC5(CN6CCOCC6)CC5)nc4c3F)c12 (single isomer, unassigned) [Compound 41A] meets or exceeds 7.
Reply | Not fulfilled

Ask | Dear colleague, could you confirm whether C#Cc1c(F)ccc2cccc(-c3ccc4c(N5CC6CCC(C5)N6)nc(OCC5(CN6CCOCC6)CC5)nc4c3F)c12 [Compound 93] has pIC50 at or above 7?
Reply | Not fulfilled

Ask | Does the reported pIC50 for C#Cc1c(OC)ccc2cc(O)cc(-c3ccc4c(N5CC6CCC(C5)N6)nc(OCC5(CN6CCOCC6)CC5)nc4c3F)c12 [Compound 94] fall at or above the 7 mark?
Reply | Not fulfilled

Ask | Given the entry C#Cc1cccc2cc(O)cc(-c3ccc4c(N5C6CCC5CNC6)nc(OC[C@@]56CCCN5C[C@H](F)C6)nc4c3F)c12 [Compound 70] , answer whether its pIC50 meets or surpasses 7.
Reply | Fulfilled

Ask | Decide: pIC50 of CCc1cccc2cc(O)cc(-c3ccc4c(N5CC6CCC(C5)N6)nc(OCC5(CN6CCOCC6)CC5)nc4c3F)c12 [Compound 47] >= 7?
Reply | Not fulfilled

Ask | API: above_or_equal(metric=pIC50, cutoff=7) for item C#Cc1c(F)ccc2cc(O)cc(-c3ccc4c(N5CC6CCC(C5)N6)nc(OCC5(CN6CCCC(F)C6)CC5)nc4c3F)c12 (stereo not drawn) [Compound 74]
Reply | Fulfilled

Ask | Please tell me: is the compound C#Cc1cccc2cc(O)cc(-c3ccc4c(N5CC6CCC(C5)N6)nc(OCC5(CN6CCOCC6)CC5)nc4c3Cl)c12 [Compound 121] at or over 7 in terms of pIC50?
Reply | Not fulfilled

Ask | Does the compound C#Cc1cccc2cc(O)cc(-c3cc4nc(OCC5(CN6CCOCC6)CC5)nc(N5CC6CCC(C5)N6)c4cc3C#N)c12 [Compound 61] have recorded pIC50 that is 7 or more?
Reply | Not fulfilled

Ask | pIC50 >= 7 for N#Cc1c(N)sc2c(F)ccc(-c3ccc4c(N5CC6CCC(C5)N6)nc(OCC5(CN6CCOCC6)CC5)nc4c3F)c12 [Compound 95] ?
Reply | Not fulfilled

Ask | Reported pIC50 reaches at least 7 for C#Cc1c(F)ccc2cc(O)cc(-c3c(Cl)cc4c(N5CC6CCC(C5)N6)nc(OCC5(CN6CCOCC6)CC5)nc4c3F)c12 (single isomer, unassigned) [Compound 99B] ?
Reply | Fulfilled

Ask | Item Oc1cc(-c2c(Cl)cc3c(N4CC5CCC(C4)N5)nc(OCC4(CN5CCOCC5)CC4)nc3c2F)c2cccc(F)c2c1 [Compound 92] with pIC50 of 7 or above?
Reply | Not fulfilled

Ask | Kindly determine if pIC50 recorded for C#Cc1cccc2cc(O)cc(-c3ccc4c(N5C6CNCC5C6)nc(OCC5(CN6CCOCC6)CC5)nc4c3F)c12 [Compound 56] is above or exactly 7.
Reply | Not fulfilled

Ask | Could you verify whether the entry C#Cc1cccc2cc(O)cc(-c3c(C4CC4)cc4c(N5CC6CCC(C5)N6)nc(OCC5(CN6CCOCC6)CC5)nc4c3F)c12 (single isomer, unassigned) [Compound 38A] shows pIC50 of no less than 7?
Reply | Not fulfilled

Ask | Threshold query (pIC50 >= 7) on C#Cc1cccc2cc(O)cc(-c3c(Cl)cc4c(N5CC6CCC(C5)N6)nc(OCC5(CN6CCOCC6)CC5)nc4c3Cl)c12 [Compound 107]
Reply | Not fulfilled

Ask | Quick check, pIC50 >= 7? C#Cc1cccc2cc(O)cc(-c3ccc4c(N5CC6CCC(C5)N6)nc(OCC5(CN6CCOCC6)CC5)nc4c3F)c12 [Compound 34]
Reply | Fulfilled

Ask | For this compound, is measured pIC50 7 or higher? C#Cc1cccc2cc(O)cc(-c3c(C#N)cc4c(N5CC6CCC(C5)N6)nc(OCC5(CN6CCOCC6)CC5)nc4c3F)c12 (single isomer, unassigned) [Compound 60A]
Reply | Not fulfilled

Ask | Given the entry C#Cc1cccc2cc(O)cc(-c3c(F)cc4c(N5CC6CCC(C5)N6)nc(OCC5(CN6CCOCC6)CC5)nc4c3C)c12 [Compound 101] , answer whether its pIC50 meets or surpasses 7.
Reply | Not fulfilled

Ask | Does the compound C#Cc1cccc2cc(O)cc(-c3c(Cl)cc4c(N5CC6CCC(C5)N6)nc(OCC5(CN6CCOCC6)CC5)nc4c3Cl)c12 (single isomer, unassigned) [Compound 107B] have recorded pIC50 that is 7 or more?
Reply | Not fulfilled
